- system name: SNAP25 full length (FLAG and MYC tagged) (Homo sapiens, UniProt P60880 SEQ:12-217)
- Sequence (P60880 whole entry): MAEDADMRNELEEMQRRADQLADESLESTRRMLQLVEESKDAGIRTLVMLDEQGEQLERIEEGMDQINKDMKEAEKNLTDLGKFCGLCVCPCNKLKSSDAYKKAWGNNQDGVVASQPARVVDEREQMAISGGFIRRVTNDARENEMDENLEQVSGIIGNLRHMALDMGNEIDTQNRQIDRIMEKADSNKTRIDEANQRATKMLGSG
- method: ELONA
- run conditions: tags: FLAG and MYC
Short version: binding signal at least 40 ELISA signal is Criterion met, less is Criterion not met.

Qu. # check: binding signal of SNAP.08 (ssDNA, W indole, X amine, Y phenol modified dU [14,19,20,34,40,43,46]) DNA: TTTTTAACACGACTGAAGTTCGCCAGGCGAACATCGTGGTGGTCGTGCCATG is greater than or equal to 40 ELISA signal
Ans. Criterion not met

Further cases:
Qu. # check: binding signal of SNAP.02 (ssDNA, W indole, X amine, Y phenol modified dU [16,19,40,43,46]) DNA: TTTTTAAGCCCACACTGCTGTGAAGGACACAGCCCGACATCGTCGTGCCATG is greater than or equal to 40 ELISA signal
Ans. Criterion met

Qu. # check: binding signal of SNAP.03 (ssDNA, W indole, X amine, Y phenol modified dU [17,19,20,36,40]) DNA: TTTTTAAGCCCACGGGTGTTCGACAGACACAGCAATACATCGTGGGCCCATG is greater than or equal to 40 ELISA signal
Ans. Criterion met

Qu. # check: binding signal of SNAP.06 (ssDNA, W indole, X amine, Y phenol modified dU [14,15,19,34,43,46]) DNA: TTTTTAAGCCCACTTCGCTGTGAGCAACGAACATCGAGCAGGTCGTGCCATG is greater than or equal to 40 ELISA signal
Ans. Criterion met

Qu. # check: binding signal of SNAP.04 (ssDNA, W indole, X amine, Y phenol modified dU [19,27,34,38]) DNA: TTTTTAAGCCCACCCACCTGTGGACATCGAACCTCACTGCAGTGGGCCCATG is greater than or equal to 40 ELISA signal
Ans. Criterion met

Qu. # check: binding signal of SNAP.05 (ssDNA, W indole, X amine, Y phenol modified dU [19,20]) DNA: TTTTTAAGCCCACCCCGGTTCGCCAGACGAACCCCAACAGTGTGGGCCCATG is greater than or equal to 40 ELISA signal
Ans. Criterion met

Qu. # check: binding signal of SNAP.07 (ssDNA, W indole, X amine, Y phenol modified dU [19,27,35,40,43,46]) DNA: TTTTTAACACGACCGGGCTGTGCACATCGAACACTGCGGTCGTCGTGCCATG is greater than or equal to 40 ELISA signal
Ans. Criterion not met
